Value source: PubChem BioAssay

# SYSTEM_UNDER_TEST: Torsin-1A-interacting protein 2 (Homo sapiens) (UniProt Q8NFQ8)
# Sequence (Q8NFQ8 whole entry, looked up): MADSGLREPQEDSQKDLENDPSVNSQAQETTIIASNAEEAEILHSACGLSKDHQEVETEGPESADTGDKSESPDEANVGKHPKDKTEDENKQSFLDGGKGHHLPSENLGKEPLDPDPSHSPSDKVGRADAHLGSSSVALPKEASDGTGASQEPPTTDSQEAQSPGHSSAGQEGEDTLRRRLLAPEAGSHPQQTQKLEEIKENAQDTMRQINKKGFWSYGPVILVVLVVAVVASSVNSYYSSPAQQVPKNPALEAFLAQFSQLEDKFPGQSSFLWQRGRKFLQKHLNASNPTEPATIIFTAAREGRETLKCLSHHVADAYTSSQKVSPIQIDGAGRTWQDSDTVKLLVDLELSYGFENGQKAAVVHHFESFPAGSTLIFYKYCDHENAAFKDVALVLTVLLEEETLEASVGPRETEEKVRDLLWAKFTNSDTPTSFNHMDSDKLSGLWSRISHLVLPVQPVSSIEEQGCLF
# ASSAY_REMARKS: LULL1 binders on small-molecule microarray, primary screen, cell lysate, human LULL1 lysate, 635/667 nm fluorescence (AID 1092);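 note: probe is lysate of COS7 cells overexpressing human LULL1; score merges per-feature 667 nm fluorescence with signal-to-noise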
# SETTINGS: hLULL1 lysate binding, 635 nm fluorescence, higher = more signal
composite z-score values for the compounds below.

>  <COMPOUND>
C=C(CCCC)/C(=C/C[C@@H](OC(=O)c1ccncc1)c1ccc(CO)o1)c1cnc2ccccc2c1

>  <composite z-score>
2.54

$$$$
>  <COMPOUND>
O=C1C2C=CC(C(O)C(c3ccccc3)c3ccccc3)N(Nc3ccc([N+](=O)[O-])cc3)C2C(=O)N1c1ccccc1 (centres undefined)

>  <composite z-score>
3.67

$$$$
>  <COMPOUND>
NC(=O)NCC#Cc1ccc2c(c1)[C@]1(C(=O)N2)[C@H](C(N)=O)[C@H]2C(=O)O[C@H](c3ccccc3)[C@H](c3ccccc3)N2[C@@H]1c1ccccc1OCCO

>  <composite z-score>
1.04

$$$$
>  <COMPOUND>
O=C(CS)NCCCCCNC(=O)[C@H]1C[C@H]2C(=O)N[C@@H](Cc3ccccc3)C(=O)N2[C@H]1c1ccc(O)cc1

>  <composite z-score>
2.18

$$$$

----------
# ASSAY_REMARKS: modulators of S6 phosphorylation in cells, primary screen, cell-based, A549, cytoblot, luminescence, serum-stimulated (AID 1158);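 note: serum-stimulated A549 lung adenocarcinoma cells; signal is phosphorylated S6 detected by cytoblot immunostaining with HRP secondary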
# SETTINGS: A549 phospho-S6 cytoblot, 5 h, higher = more signal
Outcome label depends on z-score relative to 0.3: at/above gives t, below gives f.

>  <COMPOUND>
O=C1C2C=CC(C(O)c3ccccc3)N(n3cnnc3)C2C(=O)N1Cc1ccccc1 (centres undefined)

>  <LABEL_VALUE>
t

$$$$
>  <COMPOUND>
CCOC(=O)C[C@H]1[C@H](OC(=O)Cc2ccc3c(c2)OCO3)[C@@H](NC(=O)CC(C)C)c2cc(OCCCO)ccc2N1C(=O)c1ccccc1

>  <LABEL_VALUE>
t

$$$$
>  <COMPOUND>
CCCNC(=O)[C@@H]1c2ccccc2C(=O)N(C2CCCCC2)[C@H]1c1ccc(CO)cc1

>  <LABEL_VALUE>
f

$$$$
>  <COMPOUND>
COc1cc(CO)cc(I)c1O[C@H]1C=C(C(=O)NCCO)C[C@@H](N(CC2CCCCC2)C(=O)c2cc3ccccc3oc2=O)[C@@H]1O

>  <LABEL_VALUE>
f

$$$$
>  <COMPOUND>
COCCOC(=O)N1C(=O)[C@@]2(c3cc(C#CCC(C(=O)OC)C(=O)OC)ccc31)[C@H](c1ccccc1OCCO)N1[C@H](c3ccccc3)[C@H](c3ccccc3)OC(=O)[C@H]1[C@@H]2C(=O)N1CCCCCCC1

>  <LABEL_VALUE>
f

$$$$
>  <COMPOUND>
CC(C)N1CC=CC23O[C@@H]4/C=C\CCCOC(=O)C4[C@H]2C(=O)N(CCCCCO)[C@@H]3C1=O (some centres undefined)

>  <LABEL_VALUE>
t

$$$$
>  <COMPOUND>
CO[C@H]1COC(=O)[C@H](C)NC(=O)CC=C[C@@H](C)[C@H](NS(=O)(=O)c2ccc(C)cc2)COC(=O)[C@@H](OCc2ccccc2)C=C[C@@H]1C

>  <LABEL_VALUE>
f

$$$$
>  <COMPOUND>
C=CC[C@@]1(C(=O)NCC(O)CO)N=C(c2ccc(OCCCO)cc2)O[C@@H]1c1ccccc1CN=[N+]=[N-] (some centres undefined)

>  <LABEL_VALUE>
f

$$$$
>  <COMPOUND>
C=C(CCCC)/C(=C/C[C@@H](OC(=O)c1ccncc1)c1ccc(CO)o1)c1cnc2ccccc2c1

>  <LABEL_VALUE>
f

$$$$
>  <COMPOUND>
C[C@H]1NC(=O)[C@@H](C)NC(=O)[C@@]23C(=O)N[C@@H](Cc4ccccc4)C2[C@H](C)[C@@]2(C)O[C@H]2C3/C=C/C/C=C\CNC1=O (some centres undefined)

>  <LABEL_VALUE>
t

$$$$
>  <COMPOUND>
COCCOC(=O)N1C(=O)[C@@]2(c3cc(C#CCNC(N)=O)ccc31)[C@H](C(=O)N1CCCCCCC1)[C@H]1C(=O)O[C@H](c3ccccc3)[C@H](c3ccccc3)N1[C@@H]2c1ccccc1OCCO

>  <LABEL_VALUE>
t

$$$$
>  <COMPOUND>
C[N+](C)(C)CCCCNC(=O)[C@@H]1C[C@@H]2C(=O)N3CCC[C@H]3C(=O)N2[C@@H]1c1cccc(OCCO)c1

>  <LABEL_VALUE>
t

$$$$
>  <COMPOUND>
CO[C@H]1COC(=O)CC=C[C@H](C)COC(=O)[C@@H](OCc2ccccc2)C=C[C@@H]1C

>  <LABEL_VALUE>
t

$$$$
>  <COMPOUND>
COc1ccc(NN2C(C(O)c3cc(OC)c(OC)c(OC)c3)C=CC3C(=O)N(C4CCCCC4)C(=O)C32)cc1 (centres undefined)

>  <LABEL_VALUE>
f

$$$$
